Reference for the values: patent US20250034170A1

biological target: GCase (Homo sapiens, UniProt P04062); construct: endogenous in cells; host or cells: HeLa cells; experiment: activation of GCase in a live cell PFB assay in HELA cells; type: cell-based; conditions: activation of GCase, EC50 ranges
REPORTED ENDPOINT: EC50

> print(dat)
                                   molecule  reported.endpoint  test.result
1  O=C(c1ccc(C(F)(F)F)cc1)N1CC2(CCN(c3cnc4cnn(CC(F)F)c4n3)C2)C1 [Cmpd 377]               EC50     > 100 µM
2  CC(C)Oc1cncc(N2CCC3(CCN(c4ccc(C(F)(F)F)nc4)C3)CC2)n1 [Cmpd 254]               EC50  10 to 50 µM
3  O=C(c1cnc(C(F)(F)F)nc1)N1CC2(CCN(c3cnc4cnn(CC(F)F)c4n3)CC2)C1 [Cmpd 326]               EC50  10 to 50 µM
4  Cc1cc(N2CC3(CCN(c4cnc5c(C)nn(CC(F)F)c5n4)C3)C2)nc(C)n1 [Cmpd 640]               EC50  10 to 50 µM
5  COc1nc(N2CCC3(CC2)CC(=O)N(c2cc(C(F)(F)F)ccn2)C3)nc2c1cnn2CC(F)F [Cmpd 304]               EC50      < 10 µM

Query: Given the molecule FC(F)Cn1ncc2ncc(N3CCCC4(CC(Oc5cccc(C(F)(F)F)n5)C4)C3)nc21 (stereo not drawn) [Compound 27] , what is its reported EC50?
Response: 10 to 50 µM

Query: Given the molecule CCC1N(c2ccnc(C(F)(F)F)c2)C(=O)CC12CCN(c1cnc3cnn(CC(F)F)c3n1)CC2 (stereo not drawn) [Cmpd 853] , what is its reported EC50?
Response: 10 to 50 µM

Query: Given the molecule FC(F)Cn1ncc2ncc(N3CCC4(CCN(c5cccc(C(F)(F)F)n5)CC4)C3)nc21 [Compound 149] , what is its reported EC50?
Response: < 10 µM

Query: Given the molecule O=C1CC2(CCN1c1cnc3cnn(CC(F)F)c3n1)CN(c1ccc(C(F)(F)F)cn1)C2 [Cmpd 911] , what is its reported EC50?
Response: 10 to 50 µM

Query: Given the molecule COc1nn(CC(F)F)c2nc(N3CCC4(C3)CN(c3cnc(C(F)(F)F)nc3C)C4)cnc12 [Cmpd 1093] , what is its reported EC50?
Response: 10 to 50 µM

Query: Given the molecule FC(F)Cn1ncc2ncc(N3CCC4(CC3)CC(Oc3ccc(C(F)(F)F)nc3)C4)nc21 [Cmpd 709] , what is its reported EC50?
Response: 10 to 50 µM

Query: Given the molecule FC(F)c1ccnc(N2CCC3(CC2)CCN(c2cncc(-c4nncs4)n2)C3)c1 [Compound 164] , what is its reported EC50?
Response: 10 to 50 µM

----------
Molecular target: GCase (Homo sapiens)
Construct: endogenous in cells; host or cells: HeLa cells
Sequence (P04062 40-536): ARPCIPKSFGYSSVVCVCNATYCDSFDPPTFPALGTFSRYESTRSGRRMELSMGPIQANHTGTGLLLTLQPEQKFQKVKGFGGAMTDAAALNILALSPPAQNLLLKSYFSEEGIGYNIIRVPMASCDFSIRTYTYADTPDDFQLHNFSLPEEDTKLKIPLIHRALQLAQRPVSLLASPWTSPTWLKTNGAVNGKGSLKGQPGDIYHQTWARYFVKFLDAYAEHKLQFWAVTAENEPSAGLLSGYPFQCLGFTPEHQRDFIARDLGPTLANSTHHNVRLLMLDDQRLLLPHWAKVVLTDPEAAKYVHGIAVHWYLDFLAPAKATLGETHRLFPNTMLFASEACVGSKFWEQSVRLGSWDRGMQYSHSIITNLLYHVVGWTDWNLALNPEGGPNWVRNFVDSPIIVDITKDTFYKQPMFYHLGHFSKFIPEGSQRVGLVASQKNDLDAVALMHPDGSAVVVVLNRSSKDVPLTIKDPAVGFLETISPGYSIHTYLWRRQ
Test: activation of GCase in a live cell PFB assay in HELA cells
Format: cell-based
Details: activation of GCase, EC50 ranges
pEC50: −log10 of the molar value.
Here, each record is paired with measured pEC50 data.

Answered examples (8):
> print(dat)
                                   compound   test.result
1  COc1nn(CC(F)F)c2nc(N3CCC4(CCN(c5cc(C(F)(F)F)nc(C)n5)C4)CC3)cnc12        > 5.00
2  COc1nn(CC(F)F)c2nc(N3CCC4(CC3)CCN(c3ccc(C(F)(F)F)nc3)C4=O)cnc12        > 5.00
3  O=C1N(c2ccc(C(F)(F)F)cn2)CCCC12CN(c1cnc3cnn(CC(F)F)c3n1)C2  4.30 to 5.00
4  O=C1CC2(CCN(c3cnc4cnn(CC(F)F)c4n3)CC2)CN1c1cccc(C(F)(F)F)n1  4.30 to 5.00
5  Cc1cc(N2CC3(CCN(c4cncc(-c5nncs5)n4)C3)C2)nc(C(F)(F)F)n1        < 4.00
6  O=C1CC2(CCN(c3cnc4cnn(CC(F)F)c4n3)CC2)CN1c1ccc(F)cc1F  4.30 to 5.00
7  Cc1cc(N2CC3(CCN(c4ncc5cnn(CC(F)F)c5n4)C3)C2)nc(C(F)(F)F)n1        < 4.00
8  FC(F)(F)c1cc(N2CCCC3(C2)CN(c2cnc4cn(Cc5ccccc5)nc4n2)C3)ccn1  4.30 to 5.00

Now consider a different compound.
Query: Checklist item: pEC50 tested on GCase (Homo sapiens), entry CCn1nc(C(F)(F)F)c2ncc(N3CCC4(CN(c5cc(C(F)(F)F)nc(C)n5)C4)C3)nc21 , value?
Response: > 5.00
